Assay: qHTS Screen for Compounds that Selectively Target Cancer Cells with p53 Mutations: Cytotoxicity of p53ts Cells at the Nonpermissive Temperature; further: nearly all actives have a fitted effect of over 55% in size
Settings: H1299-p53A138V viability at 39C, ATP luminescence, 24 h; series mostly up to 46.1 µM
The whole screen tested about 130,000 compounds, of which about 1,900 (1.5%) were called active. Inconclusive results (about 5%) are left out. The call rests on the fitted dose curve; in most records, active means well fitted cell-killing curve with a large enough effect; inconclusive means small, poorly fitted or top-dose-only effect; inactive means no such curve, though single readings can be large or run the other way. The sample as a whole holds a higher share of actives than the screen did.
Your answer must be one of the following: 1 (yes) = active, 0 (no) = inactive

Take a look at these entries with their results.
**Query** What did the test return for "Cc1ccccc1-c1nc(CS(=O)(=O)CC(=O)N2CCc3ccccc3C2)c(C)o1" ?
**Result** 0 (no)

**Query** What did the test return for CCOc1ccc(/C(O)=C2/C(=O)C(=O)N(Cc3cccnc3)C2c2ccc(N(C)C)cc2)c(C)c1 (configuration not stated) ?
**Result** 0 (no)

**Query** What did the test return for "CN(C)CCCn1c(-c2ccc(Cl)cc2)csc1=Nc1ccccc1" ?
**Result** 0 (no)

**Query** What did the test return for "CCn1cc2nc(SCc3ccccc3Cl)n(CCc3ccccc3)c(=O)c2n1" ?
**Result** 0 (no)

**Query** What did the test return for "COc1ccc(C)cc1NC(=O)CCc1c(C)nn(-c2ccc(N3CCOCC3)nn2)c1C" ?
**Result** 0 (no)

Next:
**Query** What did the test return for "Cc1ccccc1NC(=O)CNc1ccccc1N1CCCCC1" ?
**Result** 0 (no)

**Query** What did the test return for "CCCCN(CCCNC(=O)c1cc(Nc2ccccc2OC)nc2ccccc12)c1ccccc1" ?
**Result** 0 (no)

**Query** What did the test return for "CC(C)c1ccc(-c2nn[nH]n2)cc1" ?
**Result** 1 (yes)

**Query** What did the test return for O=C(CN1C(=O)C2C3CCC(C3)C2C1=O)Oc1ccc2ccccc2c1 (configuration not stated) ?
**Result** 0 (no)

**Query** What did the test return for "Cc1ccc2cc3cc(C(=O)N4CCCCCC4)oc3nc2c1" ?
**Result** 1 (yes)

**Query** What did the test return for "CCN(C(=O)c1sc2cc(OC)ccc2c1Cl)c1ccccc1" ?
**Result** 0 (no)

* * *

Experiment: qHTS Screen for Compounds that Selectively Target Cancer Cells with p53 Mutations: Cytotoxicity of p53ts Cells at the Nonpermissive Temperature; further: nearly all actives have a fitted effect of over 55% in size
Details: H1299-p53A138V viability at 39C, ATP luminescence, 24 h; series mostly up to 46.1 µM
Among all 130,000 compounds or so, about 1,900 (1.5%) were called active. Another 5% or so got no clear call; they are omitted. Calls come from the whole dose curve; as a rule, active = well fitted cell-killing curve with a large enough effect; inconclusive = small, poorly fitted or top-dose-only effect; inactive = no such curve, though single readings can be large or run the other way. The full list was thinned out, with actives kept by preference.
Your answer must be one of the following: active, inactive

Take a look at these entries with their results.
**Query** What did the test return for "CCOc1ccc(Nc2c(S(=O)(=O)c3ccccc3)cnc3ccccc23)cc1" ?
**Result** inactive

**Query** What did the test return for "O=C(Cn1c(=O)nc(-c2ccccc2)c2cc(Cl)ccc21)NCc1ccc(Cl)cc1" ?
**Result** active

Please look at the following compound next.
**Query** What did the test return for "COC(=O)c1sc(NC(=O)c2ccc(OC)cc2OC)nc1C" ?
**Result** active

* * *

Test: qHTS Screen for Compounds that Selectively Target Cancer Cells with p53 Mutations: Cytotoxicity of p53ts Cells at the Nonpermissive Temperature; further: nearly all actives have a fitted effect of over 55% in size
Conditions: H1299-p53A138V viability at 39C, ATP luminescence, 24 h; series mostly up to 46.1 µM
About 1,900 (1.5%) of roughly 130,000 compounds were called active. Not shown: some 5% with an inconclusive outcome. Calls come from the whole dose curve; as a rule, active = well fitted cell-killing curve with a large enough effect; inconclusive = small, poorly fitted or top-dose-only effect; inactive = no such curve, though single readings can be large or run the other way. Shown is part of a subset that was picked to be rich in actives.
Your answer must be one of the following: active, inactive

Take a look at these entries with their results.
**Query** What did the test return for Cc1ccccc1-c1nc(CS(=O)(=O)CC(=O)NC(C)c2ccccc2)c(C)o1 (stereo unspecified) ?
**Result** inactive

**Query** What did the test return for "Cc1ccccc1NC(=O)c1ccccc1" ?
**Result** inactive

**Query** What did the test return for "O=C(CN1CCN(C2CCCCC2)CC1)Nc1ccccc1N1CCCCC1" ?
**Result** active

**Query** What did the test return for "c1ccc(-n2ncc(-c3nn[nH]n3)n2)cc1" ?
**Result** inactive

**Query** What did the test return for "COc1ccc(Cn2c(=O)c3oc4ccccc4c3n(CC(=O)Nc3ccc(F)cc3F)c2=O)cc1" ?
**Result** inactive

Next:
**Query** What did the test return for "Cc1ccc(S(=O)(=O)/N=C(/Nc2ccccn2)c2ccc(Cl)cc2)cc1" ?
**Result** inactive

**Query** What did the test return for "O=C(Nc1ncccn1)c1cccs1" ?
**Result** inactive

* * *

Assay: qHTS Screen for Compounds that Selectively Target Cancer Cells with p53 Mutations: Cytotoxicity of p53ts Cells at the Nonpermissive Temperature; further: nearly all actives have a fitted effect of over 55% in size; further: potency means the concentration at half of the fitted maximal effect
Settings: H1299-p53A138V viability at 39C, ATP luminescence, 24 h; series mostly up to 46.1 µM
Among all 130,000 compounds or so, about 1,900 (1.5%) were called active. Inconclusive results (about 5%) are left out. The sample holds actives, similar compounds and a random draw of the others, so the mix is not that of the screen.
property_measured: Potency

Consider the reported Potency for these molecules:
**Query** Report Potency for "CCc1ccc(CNC(=O)c2cc3cc4ccc(OC)cc4nc3o2)cc1"
**Result** inactive

**Query** Report Potency for "Cc1cn(C)c(CC(=O)NCc2ccc(Cl)cc2)c1C(=O)O"
**Result** inactive

**Query** Report Potency for "CCOc1cc(C(=O)Nc2ncccn2)cc(OCC)c1OCC"
**Result** inactive

**Query** Report Potency for COc1ccc(CCN2C(=O)c3[nH]nc(-c4ccccc4O)c3C2c2ccc(C)cc2)cc1OC (centres undefined)
**Result** inactive

**Query** Report Potency for "COc1ccc(C(=O)Nc2onc3c2CCCC3)cc1"
**Result** 10 µM (active)

Next:
**Query** Report Potency for "Cn1c(=O)c(C(=O)Nc2ncccn2)c(O)c2ccccc21"
**Result** 12.6 µM (active)

**Query** Report Potency for CC(C)CC(=O)NCC(c1ccc2c(c1)OCO2)N1CCN(c2ccc(F)cc2)CC1 (centres undefined)
**Result** inactive

**Query** Report Potency for "Cc1ccc(F)cc1NC(=O)c1cccc(N(C)C)c1"
**Result** inactive

**Query** Report Potency for "O=C(NCCCN1CCN(C2CCCCC2)CC1)Nc1ccccc1C(F)(F)F"
**Result** inactive
